Quick list: Euclidean distance per entry.
# System: HEPG2
# methodDescription: Euclidean distance of Cell Painting phenotypic profile (signed KS, 77 features) to DMSO centroid (dimensionless distance); 5 or 10 uM (library dependent); higher = stronger phenotypic change vs DMSO (phenoactivity)
# particulars: 48 h
The answer should be written as a number, with no unit following it.

compound	targetUnderTest	Euclidean distance
COc1cc(N2CCC(N3CCN(C)CC3)CC2)ccc1Nc1ncc(Cl)c(Nc2ccccc2P(C)(C)=O)n1	HEPG2	1.51
Nc1nccc(Oc2ccc(NC(=O)c3c[nH]cc(-c4ccc(F)cc4)c3=O)cc2F)c1Cl	HEPG2	1.17
Cc1ccc2c(c1)C(=O)C1(O)CCN(c3ccccc3)C1=N2 (single isomer, unassigned; (-)) [(-)-Blebbistatin]	HEPG2	1.13

Which measured Euclidean distance value corresponds to `NC(N)=Nc1nc(CSCC/C(N)=N/S(N)(=O)=O)cs1` ? 2.27

# credit: the supplement of paper PMC10127200
